assay: Primary particle size analysis by laser light diffraction (Mastersizer 2000); format: physicochemical; conditions: micronised, mean n=3
Where a name gives a salt, the structure may show the parent alone.
Quick list: D (0.5) (μm) per entry.
measured_property: D (0.5) (μm)

COc1cc2c(cc1OC)-c1c/c(=N\c3c(C)cc(C)cc3C)n(CCNC(N)=O)c(=O)n1CC2 [Ethanesulfonate, RPL554 ethanesulfonate]; 1.43
COc1cc2c(cc1OC)-c1c/c(=N\c3c(C)cc(C)cc3C)n(CCNC(N)=O)c(=O)n1CC2 [Methanesulfonate, RPL554 methanesulfonate]; 1.20
COc1cc2c(cc1OC)-c1c/c(=N\c3c(C)cc(C)cc3C)n(CCNC(N)=O)c(=O)n1CC2 [Sulfate, RPL554 sulfate]; 1.12
COc1cc2c(cc1OC)-c1c/c(=N\c3c(C)cc(C)cc3C)n(CCNC(N)=O)c(=O)n1CC2 [Benzenesulfonate, RPL554 benzenesulfonate]; 1.23
COc1cc2c(cc1OC)-c1c/c(=N\c3c(C)cc(C)cc3C)n(CCNC(N)=O)c(=O)n1CC2 [p-Toluenesulfonate, RPL554 p-toluenesulfonate]; 1.34
COc1cc2c(cc1OC)-c1c/c(=N\c3c(C)cc(C)cc3C)n(CCNC(N)=O)c(=O)n1CC2 [Ethane-1,2-disulfonate, RPL554 ethane-1,2-disulfonate]; 1.25

###

experiment: Solubility of RPL554 salts in saline solutions, water and aqueous buffer solutions at 25° C. (HPLC); format: physicochemical; conditions: citro-phosphate buffer in 0.9% w/w saline, pH 4.5, aqueous buffer, thermodynamic from solid, in saline 0.9% w/w, read-out: Solubility as RPL554 (mg/ml) in buffer solution pH 4.5, Citro-phosphate
measured_property: solubility at 24 h

COc1cc2c(cc1OC)-c1c/c(=N\c3c(C)cc(C)cc3C)n(CCNC(N)=O)c(=O)n1CC2 [Benzenesulfonate, RPL554 benzenesulfonate]; 1.57 mg/mL

###

Test: Solubility of RPL554 and salts in pMDI propellant systems
Assay type: physicochemical
Details: in HFA 134
Description: Quantitative assessment of the solubility of RPL554 and salt variants in the propellant systems of selected pMDI formulations (three replicates of each formulation) was performed. pMDIs were directly coupled to an adaptor fitted with a 0.20 μm filter unit connected, in series to a 21 G needle, which was inserted via a rubber septum, into a cooled multi-dose glass vial. A 19 G filter needle was inserted through the septum to aid evaporation of propellant from the vial. […]
Quick list: Calculated Solubilised RPL554 μg per 50 μL actuation per entry.
measured_property: Calculated Solubilised RPL554 μg per 50 μL actuation (µg)

COc1cc2c(cc1OC)-c1c/c(=N\c3c(C)cc(C)cc3C)n(CCNC(N)=O)c(=O)n1CC2 [p-Toluenesulfonate, RPL554 p-toluenesulfonate]; 0.11
COc1cc2c(cc1OC)-c1c/c(=N\c3c(C)cc(C)cc3C)n(CCNC(N)=O)c(=O)n1CC2 [Ethanesulfonate, RPL554 ethanesulfonate]; 9.03

###

test: Primary particle size analysis by laser light diffraction (Mastersizer 2000); assay type: physicochemical; details: micronised, mean n=3
Where a name gives a salt, the structure may show the parent alone.
measured_property: D (0.1) (μm)

COc1cc2c(cc1OC)-c1c/c(=N\c3c(C)cc(C)cc3C)n(CCNC(N)=O)c(=O)n1CC2 [Ethanesulfonate, RPL554 ethanesulfonate]; 0.56
COc1cc2c(cc1OC)-c1c/c(=N\c3c(C)cc(C)cc3C)n(CCNC(N)=O)c(=O)n1CC2 [p-Toluenesulfonate, RPL554 p-toluenesulfonate]; 0.47
COc1cc2c(cc1OC)-c1c/c(=N\c3c(C)cc(C)cc3C)n(CCNC(N)=O)c(=O)n1CC2 [Benzenesulfonate, RPL554 benzenesulfonate]; 0.46
COc1cc2c(cc1OC)-c1c/c(=N\c3c(C)cc(C)cc3C)n(CCNC(N)=O)c(=O)n1CC2 [Methanesulfonate, RPL554 methanesulfonate]; 0.45
COc1cc2c(cc1OC)-c1c/c(=N\c3c(C)cc(C)cc3C)n(CCNC(N)=O)c(=O)n1CC2 [Ethane-1,2-disulfonate, RPL554 ethane-1,2-disulfonate]; 0.52
COc1cc2c(cc1OC)-c1c/c(=N\c3c(C)cc(C)cc3C)n(CCNC(N)=O)c(=O)n1CC2 [Sulfate, RPL554 sulfate]; 0.51

###

Assay: Solubility of RPL554 salts in saline solutions, water and aqueous buffer solutions at 25° C. (HPLC)
Assay type: physicochemical
Details: 0.7% w/w saline, saline or isotonic, thermodynamic from solid, 24 hours, read-out: Solubility as RPL554 (mg/ml) in 0.7 w/w % Saline
Experimental: The behaviour of salts of RPL554 were examined under the following conditions: • Phosphate buffered to pH 3.5 in saline, 0.9% w/w at 25° C. • Acetate buffered to pH 4.5 in saline, 0.9% w/w at 25° C. • Citro-Phosphate buffered to pH 4.5 in saline, 0.9% w/w at 25° C. • Phosphate buffered to pH 6.5 in saline, 0.9% w/w at 25° C. • Saline, 0.7, 0.9 and 1.1% w/w at 25° C. • Deionised water at 25° C. […]
measured_property: solubility at 24 h (mg/mL)

COc1cc2c(cc1OC)-c1c/c(=N\c3c(C)cc(C)cc3C)n(CCNC(N)=O)c(=O)n1CC2 [Benzenesulfonate, RPL554 benzenesulfonate]; 2.27

###

Quick list: ††RPL554 Emitted (μg) per capsule (B) per entry.
test: Aerosol performance of DPI formulations (Cyclohaler, NGI); type: physicochemical; conditions: Cyclohaler, NGI; mass determined from HPLC analysis of recovered samples; as RPL554 base
Where a name gives a salt, the structure may show the parent alone.
measured_property: ††RPL554 Emitted (μg) per capsule (B) (µg)

COc1cc2c(cc1OC)-c1c/c(=N\c3c(C)cc(C)cc3C)n(CCNC(N)=O)c(=O)n1CC2 [Ethane-1,2-disulfonate, RPL554 ethane-1,2-disulfonate]; 87.91
COc1cc2c(cc1OC)-c1c/c(=N\c3c(C)cc(C)cc3C)n(CCNC(N)=O)c(=O)n1CC2 [Methanesulfonate, RPL554 methanesulfonate]; 118.69
COc1cc2c(cc1OC)-c1c/c(=N\c3c(C)cc(C)cc3C)n(CCNC(N)=O)c(=O)n1CC2 [Sulfate, RPL554 sulfate]; 79.35
COc1cc2c(cc1OC)-c1c/c(=N\c3c(C)cc(C)cc3C)n(CCNC(N)=O)c(=O)n1CC2 [Benzenesulfonate, RPL554 benzenesulfonate]; 87.57
COc1cc2c(cc1OC)-c1c/c(=N\c3c(C)cc(C)cc3C)n(CCNC(N)=O)c(=O)n1CC2 [Ethanesulfonate, RPL554 ethanesulfonate]; 111.09
COc1cc2c(cc1OC)-c1c/c(=N\c3c(C)cc(C)cc3C)n(CCNC(N)=O)c(=O)n1CC2 [p-Toluenesulfonate, RPL554 p-toluenesulfonate]; 86.84

###

assay: Primary particle size analysis by laser light diffraction (Mastersizer 2000); assay type: physicochemical; details: micronised, mean n=3
Structures can show the parent of a compound that is named as a salt.
measured_property: D (0.9) (μm)

COc1cc2c(cc1OC)-c1c/c(=N\c3c(C)cc(C)cc3C)n(CCNC(N)=O)c(=O)n1CC2 [Benzenesulfonate, RPL554 benzenesulfonate]; 3.51
COc1cc2c(cc1OC)-c1c/c(=N\c3c(C)cc(C)cc3C)n(CCNC(N)=O)c(=O)n1CC2 [Ethane-1,2-disulfonate, RPL554 ethane-1,2-disulfonate]; 2.78
COc1cc2c(cc1OC)-c1c/c(=N\c3c(C)cc(C)cc3C)n(CCNC(N)=O)c(=O)n1CC2 [p-Toluenesulfonate, RPL554 p-toluenesulfonate]; 4.53
COc1cc2c(cc1OC)-c1c/c(=N\c3c(C)cc(C)cc3C)n(CCNC(N)=O)c(=O)n1CC2 [Sulfate, RPL554 sulfate]; 2.30
COc1cc2c(cc1OC)-c1c/c(=N\c3c(C)cc(C)cc3C)n(CCNC(N)=O)c(=O)n1CC2 [Methanesulfonate, RPL554 methanesulfonate]; 3.46
COc1cc2c(cc1OC)-c1c/c(=N\c3c(C)cc(C)cc3C)n(CCNC(N)=O)c(=O)n1CC2 [Ethanesulfonate, RPL554 ethanesulfonate]; 4.18

###

assay: Solubility of RPL554 salts in saline solutions, water and aqueous buffer solutions at 25° C. (HPLC); format: physicochemical; details: acetate buffer in 0.9% w/w saline, pH 4.5, aqueous buffer, thermodynamic from solid, in saline 0.9% w/w, read-out: Solubility as RPL554 (mg/ml) in buffer solution pH 4.5, Acetate
measured_property: solubility at 24 h (mg/mL)

COc1cc2c(cc1OC)-c1c/c(=N\c3c(C)cc(C)cc3C)n(CCNC(N)=O)c(=O)n1CC2 [Benzenesulfonate, RPL554 benzenesulfonate]; 1.39

###

Quick list: †Measured Mass of 1% w/w Blend Delivered per capsule per entry.
experiment: Aerosol performance of DPI formulations (Cyclohaler, NGI); assay type: physicochemical; settings: Cyclohaler, 5 capsules containing 20 mg powder blend; mass from weight change of capsule-loaded device
measured_property: †Measured Mass of 1% w/w Blend Delivered per capsule (mg)

COc1cc2c(cc1OC)-c1c/c(=N\c3c(C)cc(C)cc3C)n(CCNC(N)=O)c(=O)n1CC2 [Ethanesulfonate, RPL554 ethanesulfonate]; 20.18
COc1cc2c(cc1OC)-c1c/c(=N\c3c(C)cc(C)cc3C)n(CCNC(N)=O)c(=O)n1CC2 [Benzenesulfonate, RPL554 benzenesulfonate]; 20.04
COc1cc2c(cc1OC)-c1c/c(=N\c3c(C)cc(C)cc3C)n(CCNC(N)=O)c(=O)n1CC2 [p-Toluenesulfonate, RPL554 p-toluenesulfonate]; 20.02
COc1cc2c(cc1OC)-c1c/c(=N\c3c(C)cc(C)cc3C)n(CCNC(N)=O)c(=O)n1CC2 [Ethane-1,2-disulfonate, RPL554 ethane-1,2-disulfonate]; 19.90
COc1cc2c(cc1OC)-c1c/c(=N\c3c(C)cc(C)cc3C)n(CCNC(N)=O)c(=O)n1CC2 [Methanesulfonate, RPL554 methanesulfonate]; 19.96
